Target: VIM-1 (Pseudomonas aeruginosa)
Experiment: meropenem hydrolysis inhibition assay
endpoint label: IC50

compound	endpoint label	test result
CCCCCCCCCCCC1=C(O)C(=O)C=C(O)C1=O [embelin]	IC50	~200 µM

----------
Target: IMP-1 (Serratia marcescens)
Sequence (P52699 19-246 limits assumed): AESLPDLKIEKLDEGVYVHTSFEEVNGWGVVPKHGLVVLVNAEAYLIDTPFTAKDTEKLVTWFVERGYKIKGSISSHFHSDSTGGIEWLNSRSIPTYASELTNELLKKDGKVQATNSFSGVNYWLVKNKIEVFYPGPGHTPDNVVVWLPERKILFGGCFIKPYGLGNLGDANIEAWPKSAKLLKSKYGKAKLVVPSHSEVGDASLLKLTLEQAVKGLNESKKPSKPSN
pIC50: −log10 of the molar value.

compound	pIC50
CCCCCCCCCCCC1=C(O)C(=O)C=C(O)C1=O [embelin]	~4.00

----------
Target: NDM-1 (New Delhi metallo-β-lactamase-1) (Klebsiella pneumoniae)
Construct: gene blaNDM-1
Sequence (C7C422 29-270 limits assumed): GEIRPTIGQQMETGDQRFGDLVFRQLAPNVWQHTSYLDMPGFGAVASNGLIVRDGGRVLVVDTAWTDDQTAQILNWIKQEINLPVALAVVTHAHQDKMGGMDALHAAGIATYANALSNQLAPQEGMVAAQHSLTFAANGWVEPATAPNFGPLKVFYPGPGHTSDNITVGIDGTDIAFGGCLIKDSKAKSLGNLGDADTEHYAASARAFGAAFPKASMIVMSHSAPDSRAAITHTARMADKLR
Test: meropenem hydrolysis inhibition with purified NDM-1, […] nm (IC50 […])
Type: biochemical
endpoint label: Ki (nM)

1. CCCCCCCCCCCC1=C(O)C(=O)C=C(O)C1=O 190
